Molecular target: M4 muscarinic receptor (Homo sapiens)
Construct: expressed in transfected cells; host or cells: CHO cells (M4-CHO, under puromycin, zeocin and blasticidin selection)
Sequence (P08173 1-479): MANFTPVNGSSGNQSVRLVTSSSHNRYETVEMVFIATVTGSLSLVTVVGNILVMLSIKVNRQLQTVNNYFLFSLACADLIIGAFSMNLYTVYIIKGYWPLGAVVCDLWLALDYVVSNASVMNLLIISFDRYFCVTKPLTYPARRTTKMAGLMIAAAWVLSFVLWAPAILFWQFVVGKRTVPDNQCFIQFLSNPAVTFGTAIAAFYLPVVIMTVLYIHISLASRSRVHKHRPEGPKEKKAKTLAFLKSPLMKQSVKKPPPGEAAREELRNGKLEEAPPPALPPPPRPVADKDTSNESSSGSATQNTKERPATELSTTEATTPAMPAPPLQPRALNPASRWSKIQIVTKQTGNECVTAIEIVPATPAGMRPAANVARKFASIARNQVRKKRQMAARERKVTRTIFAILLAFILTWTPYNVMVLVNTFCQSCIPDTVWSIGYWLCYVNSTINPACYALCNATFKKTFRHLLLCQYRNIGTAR
Test: Functional mobilization of intracellular calcium (FLIPR, Fluo-3), M4-CHO cells
Format: cell-based
Details: compound nos. 1-454; 100% efficacy is the maximum response obtained with the Carbachol control; read-out: M4 Efficacy
value_type: Emax

Use the examples below as a reference point.
>  <compound>
CN(C)C(=O)N1CC2(CCN(C3CCN(c4ccccc4F)CC3)CC2)c2cc(F)ccc21

>  <value_type>
Emax

>  <result>
< 55%

$$$$
>  <compound>
CC(=O)N[C@H]1CC2(CCN(C3CCCCCCC3)CC2)c2ccccc21

>  <value_type>
Emax

>  <result>
< 55%

$$$$
>  <compound>
CC(=O)N1CC2(CCN(CC3CCN(C(=O)OC(C)C)CC3)CC2)c2cc(C)ccc21

>  <value_type>
Emax

>  <result>
< 55%

$$$$
>  <compound>
Clc1ccc2c(c1)C1(CCO2)CCN(C2CCCCC2)CC1

>  <value_type>
Emax

>  <result>
55 to 70%

$$$$
>  <compound>
CCOC(=O)N1CCC(N2CCC3(CC2)CN(C(C)=O)c2ccc(CC)cc23)CC1

>  <value_type>
Emax

>  <result>
> 70%

$$$$

Lookup: Fill in Emax for CC(C)OC(=O)N1C2CCC1CC(N1CCC3(CC1)CN(C(=O)O[C@@H]1CCOC1)c1ccc(F)cc13)C2 (some centres unmarked) tested with M4 muscarinic receptor (Homo sapiens).
Found: < 55%

Lookup: Fill in Emax for `CCOC(=O)N1CCC(N2CCC3(CC2)CN(C(C)=O)c2ccc(-c4ccc(S(C)(=O)=O)cc4)cc23)CC1` tested with M4 muscarinic receptor (Homo sapiens).
Found: 55 to 70%

Lookup: Fill in Emax for `CCOC(=O)N1CCC(N2CCC3(CC2)CN(C(=O)N2CCOCC2)c2ccc(F)cc23)CC1` tested with M4 muscarinic receptor (Homo sapiens).
Found: < 55%

Lookup: Fill in Emax for `Clc1ccc2c(c1)C1(CCN([C@H]3C[C@@H]4CC[C@H]3C4)CC1)CO2` tested with M4 muscarinic receptor (Homo sapiens).
Found: 55 to 70%

Lookup: Fill in Emax for CN(C)C(=O)N1CC2(CCN(CC3CCN(c4nccs4)C3)CC2)c2cc(F)ccc21 (centres unmarked) tested with M4 muscarinic receptor (Homo sapiens).
Found: 55 to 70%

Lookup: Fill in Emax for Cc1ccc2c(c1)C1(CCN(C3CC4CCC3C4)CC1)CN2 (centres unmarked) tested with M4 muscarinic receptor (Homo sapiens).
Found: > 70%

Lookup: Fill in Emax for O=C(O[C@H]1CCOC1)N1C2CCC1CC(N1CCC3(CC1)COc1ccc(F)cc13)C2 (some centres unmarked) tested with M4 muscarinic receptor (Homo sapiens).
Found: < 55%

* * *

molecular target: M4 muscarinic receptor (Homo sapiens, UniProt P08173); construct: expressed in transfected cells; host or cells: CHO cells (M4-CHO, under puromycin, zeocin and blasticidin selection); test: Functional mobilization of intracellular calcium (FLIPR, Fluo-3), M4-CHO cells; assay type: cell-based; conditions: compound nos. 1-454; 100% efficacy is the maximum response obtained with the Carbachol control; read-out: M4 Efficacy
Measured Emax, listed per entry for reference.

>  <compound>
CC(=O)N1CC2(CCN(C3CC4CCC(C3)N4C(=O)OC3CCC3)CC2)c2cc(F)ccc21 (centres unmarked) [compound 174]

>  <tested_target>
M4 muscarinic receptor (Homo sapiens, UniProt P08173)

>  <Emax>
55 to 70%

$$$$
>  <compound>
CCOC(=O)N1CCC(N2CCC3(CC2)CN(C(=O)C2CCCC2)c2ccc(F)cc23)CC1 [compound 17]

>  <tested_target>
M4 muscarinic receptor (Homo sapiens, UniProt P08173)

>  <Emax>
55 to 70%

$$$$
>  <compound>
CCCS(=O)(=O)N1CC2(CCN(C3CC4CCC(C3)N4C(=O)OCC)CC2)c2cc(F)ccc21 (centres unmarked) [compound 349]

>  <tested_target>
M4 muscarinic receptor (Homo sapiens, UniProt P08173)

>  <Emax>
> 70%

$$$$
>  <compound>
CCOC(=O)N1CCC(N2CCC3(CC2)CN(C(=O)CC(C)(C)C)c2ccc(F)cc23)CC1 [compound 194]

>  <tested_target>
M4 muscarinic receptor (Homo sapiens, UniProt P08173)

>  <Emax>
55 to 70%

$$$$

Lookup: For the compound COCCOC(=O)N1CCC(N2CCC3(CC2)CN(C(C)=O)c2ccc(C)cc23)CC1 [compound 293] , give its reported Emax.
Found: > 70%

Lookup: For the compound CCOC(=O)N1CCC(CN2CCC3(CC2)COc2ccc(Cl)cc23)CC1 [compound 176] , give its reported Emax.
Found: 55 to 70%

Lookup: For the compound CCOC(=O)N1CCC(CN2CCC3(CCc4ccccc43)CC2)CC1 [compound 414] , give its reported Emax.
Found: < 55%

Lookup: For the compound CCOC(=O)N1C2CCC1CC(N1CCC3(CC1)CN(S(=O)(=O)c1c(C)noc1C)c1ccc(F)cc13)C2 (centres unmarked) [compound 89] , give its reported Emax.
Found: < 55%

* * *

Target: M4 muscarinic receptor (Homo sapiens, UniProt P08173)
Construct: expressed in transfected cells; host or cells: CHO cells (M4-CHO, under puromycin, zeocin and blasticidin selection)
Sequence (P08173 1-479): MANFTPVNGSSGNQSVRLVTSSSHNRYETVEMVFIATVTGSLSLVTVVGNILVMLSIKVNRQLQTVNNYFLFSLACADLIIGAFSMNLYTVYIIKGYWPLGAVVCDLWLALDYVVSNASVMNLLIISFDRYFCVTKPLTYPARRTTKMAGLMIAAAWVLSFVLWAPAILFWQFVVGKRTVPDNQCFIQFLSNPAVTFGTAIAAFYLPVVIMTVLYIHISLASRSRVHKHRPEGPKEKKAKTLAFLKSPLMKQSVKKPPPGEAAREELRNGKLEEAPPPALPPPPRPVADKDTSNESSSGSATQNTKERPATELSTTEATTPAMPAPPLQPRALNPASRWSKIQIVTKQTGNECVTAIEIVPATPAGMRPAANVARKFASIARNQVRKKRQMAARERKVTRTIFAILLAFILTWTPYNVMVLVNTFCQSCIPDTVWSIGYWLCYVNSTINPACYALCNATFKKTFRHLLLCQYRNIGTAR
Experiment: Functional mobilization of intracellular calcium (FLIPR, Fluo-3), M4-CHO cells
Type: cell-based
Conditions: compound nos. 1-454; 100% efficacy is the maximum response obtained with the Carbachol control; read-out: M4 Efficacy
value_type: Emax

Use the examples below as a reference point.
>  <compound>
CC(C)OC(=O)N1C2CCC1CC(N1CCC3(CC1)CN(S(C)(=O)=O)c1ccc(F)cc13)C2 (centres unmarked) [compound 170]

>  <Emax>
> 70%

$$$$
>  <compound>
CCOC(=O)N1CCC(CN2CCC3(CC2)COc2ccc(F)cc23)CC1 [compound 107]

>  <Emax>
< 55%

$$$$

Lookup: For the compound Fc1ccc2c(c1)C1(CCN(C[C@H]3C[C@H]4CC[C@H]3C4)CC1)CO2 [compound 207] , give its reported Emax.
Found: < 55%

Lookup: For the compound CC(=O)N1CC2(CCN(C3CCC[C@@H](C)C3)CC2)c2cc(F)ccc21 (some centres unmarked) [compound 240] , give its reported Emax.
Found: > 70%

Lookup: For the compound Clc1ccc2c(c1)C1(CCN(C3CCOCC3)CC1)CO2 [compound 257] , give its reported Emax.
Found: < 55%

Lookup: For the compound COC(=O)N1CC2(CCN(C3CC4CCC(C3)N4C(=O)OC(C)C)CC2)c2cc(F)ccc21 (centres unmarked) [compound 97] , give its reported Emax.
Found: < 55%

Lookup: For the compound CCOC(=O)N1CCC(N2CCC3(CC2)CN(C(C)=O)c2ccc(-c4cccc(C)c4)cc23)CC1 [compound 6] , give its reported Emax.
Found: 55 to 70%

Lookup: For the compound COc1ccc(F)cc1N1CCC(N2CCC3(CC2)CN(C(=O)N(C)C)c2ccc(F)cc23)CC1 [compound 443] , give its reported Emax.
Found: 55 to 70%
